Field: logD at 100 µM. Provide a value for each of the compounds that follow.
assay remarks: Lipophilicity, logD of compound in 1-octanol and PBS mixture in pH 7.4 at 100 uM incubated for 24 under shaking condition by HPLC analysis
Type: physicochemical
settings: 1-octanol/PBS
// return a plain number; no unit text

# query: logD at 100 µM of entry CC(C)c1ccccc1-c1cccc(CNc2ccc(OCC(=O)O)c(F)c2)c1
3.45

What do you get for CCOc1ccc(-c2cccc(CNc3ccc(OCC(=O)O)c(F)c3)c2)c(C)c1 ?
2.83

What do you get for CCCOc1cc(C)c(-c2cccc(CNc3ccc(OCC(=O)O)c(F)c3)c2)c(C)c1 ?
3.59

What do you get for Cc1cc(OCCCS(C)(=O)=O)cc(C)c1-c1cccc(CNc2ccc(OCC(=O)O)c(F)c2)c1 ?
1.73

What do you get for CCOc1cc(C)c(-c2cccc(COc3ccc(OCC(=O)O)c(F)c3)c2)c(C)c1 ?
3.61

What do you get for O=C(O)COc1ccc(NCc2cccc(-c3ccccc3C(F)(F)F)c2)cc1F ?
3.13

What do you get for COCCOc1cc(C)c(-c2cccc(CNc3ccc(OCC(=O)O)c(F)c3)c2)c(C)c1 ?
2.47

What do you get for Cc1ccc(-c2cccc(CNc3ccc(OCC(=O)O)c(F)c3)c2)c(Cl)c1 ?
3.24

What do you get for O=C(O)COc1ccc(NCc2cccc(-c3ccccc3Cl)c2)cc1F ?
2.71
